System: HCT-116 colon
assay_method_text: NCI tumour cell line growth inhibition, 48 h

compound	TGI
CSC(=S)c1ccc(C(=S)SC)cc1	> 100 µM
O=C1OC(c2ccco2)=N/C1=C\c1ccc(Cl)c(Cl)c1	> 100 µM
CN(C1=NCCO1)c1cccc2ccccc12	> 10 µM
O=P(c1ccccc1)(c1ccccc1)C1CC=C(c2ccccc2)C2(CCCC2)C1 (stereo not drawn)	> 100 µM
CCN1CC2=C(N=c3s/c(=C\c4ccc(Cl)cc4)c(=O)n3C2c2ccc(Cl)cc2)/C(=C/c2ccc(Cl)cc2)C1 (stereo not drawn)	> 100 µM
CC(C)(C)[OH+][O-].[O-]c1ccc(Cl)cc1C=Nc1ccc(Cl)cc1[O-].[O]=[V]	98.9 µM
CCOC(=O)c1c(C)n(Cc2ccccc2)c(=O)c2ccccc2c(=O)c2c(=O)ccc(=O)c1=2	46.8 µM
O=C(OCCN=C1c2ccccc2CCc2ccccc21)c1cc([N+](=O)[O-])cc([N+](=O)[O-])c1	> 31.6 µM
CSc1ccc2c(cc1=O)[C@@H](NC(C)=O)CCc1cc(O)c(O)c(O)c1-2	> 100 µM
O=C1c2ccccc2-c2c1c1ccccc1c(=O)n2Cc1ccco1	> 100 µM
CC(C)(C)[Si](C)(C)OCC1CCC(n2cnc3c(NC(=O)c4ccccc4)ncnc32)O1 (stereo not drawn)	33.5 µM
Oc1c(CN2CCC(N3CCOCC3)CC2)cc(Cc2cc(CN3CCC(N4CCOCC4)CC3)c(O)c3ncccc23)c2cccnc12	48.7 µM
CC(C)C(C(=O)O)N(CC1(O)OCC(O)C(O)C1O)N=O (stereo not drawn)	> 100 µM

----------
Each item that follows carries a reported TGI.
Tested on: MCF7 breast
assay_method_text: NCI tumour cell line growth inhibition, 48 h

compound	TGI
N#CC1=C(N)Oc2cc3c(cc2C1c1cccs1)OCO3 (stereo unspecified)	> 62.3 µM
CCN(CC)CCn1c(C(C)(C)C)nc2ccccc21	> 100 µM
Cn1c(=O)oc2cc(C(=O)CSC(=S)N3CCCCCC3)ccc21	> 100 µM
NCc1ccc(-c2ccc(-c3ccc(-c4ccc(CN)s4)s3)s2)s1	> 100 µM
CCC1(C)C=Cc2c(cc(OC)c3c(=O)c4ccccc4n(C)c23)O1 (stereo unspecified)	> 10 µM
C[Si](C)(C)C#CCO[Si](C)(C)C	> 100 µM

----------
System: HL-60(TB) leukemia
assay_method_text: NCI tumour cell line growth inhibition, 48 h
Attribute: TGI
readout_kind: TGI

compound	measured_target	readout_kind	result
O=C(Cn1c(=O)ccn(C2OC(CO)C(O)C2F)c1=O)c1ccc(F)cc1 (stereo not drawn)	HL-60(TB) leukemia	TGI	> 100 µM
CCCCCC(CN1CCOCC1)C(=O)/C=C/c1ccccc1 (stereo not drawn)	HL-60(TB) leukemia	TGI	5.42 µM
CS(=O)(=O)c1ccc(Oc2cc(F)cc(C#N)c2)c2c1[C@H](O)[C@H](F)[C@@H]2F	HL-60(TB) leukemia	TGI	> 100 µM

----------
// reported TGI per item
Tested on: SF-539 CNS
assay_method_text: NCI tumour cell line growth inhibition, 48 h
readout_kind: TGI

molecule	measured_target	result
CS(=O)(=O)c1ccc(Oc2cc(F)cc(C#N)c2)c2c1[C@H](O)[C@H](F)[C@@H]2F	SF-539 CNS	> 100 µM
C=C1C(=O)O[C@H]2[C@H]1CC/C(COC(=O)C(=O)c1c[nH]c3ccccc13)=C\CC[C@@]1(C)O[C@@H]21	SF-539 CNS	3.76 µM
CN(C1=NCCO1)c1cccc2ccccc12	SF-539 CNS	> 10 µM
CCOP(=O)(OCC)C(NC(=O)OCC(Cl)(Cl)Cl)n1nnc(C(=O)OC)c1C(=O)OC (stereo unspecified)	SF-539 CNS	> 100 µM
CN1CCCN2CCN(C)CCN(CC1)CC2	SF-539 CNS	> 100 µM
Clc1ccc(N=C/C=C/Nc2ccc(Cl)cn2)nc1	SF-539 CNS	31.3 µM
CCCCCCCCCCCCCS(=O)(=O)O	SF-539 CNS	> 100 µM
Clc1ccc(-c2nn3c(CCCCCCCCc4nnc5sc(-c6ccc(Cl)cc6)nn45)nnc3s2)cc1	SF-539 CNS	52.6 µM
CCNC(=O)C[C@@H]1N=C(c2ccc(Cl)cc2)c2cc(OC)ccc2-n2c(C)nnc21	SF-539 CNS	> 100 µM
O=C(Cn1c(=O)ccn(C2OC(CO)C(O)C2F)c1=O)c1ccc(F)cc1 (stereo unspecified)	SF-539 CNS	> 100 µM
CN(C)c1nc(N(C)C)nc(N(C)C)n1	SF-539 CNS	> 142 µM
CCOC(=O)c1cc2cc(N(C(C)=O)C(C)=O)ccc2s1	SF-539 CNS	92.3 µM
CNC(=S)/C(=N\Nc1nc[nH]c1C(N)=O)C(N)=S	SF-539 CNS	> 81.3 µM
CC1=C2C(O)C(C(C)C(=O)NCC(C)C)CCC2(C)C=CC1=O (stereo unspecified)	SF-539 CNS	> 100 µM
O=C(Cc1nc2ccccc2s1)C(=O)Nc1ccc(Cl)cc1	SF-539 CNS	> 100 µM
O=c1c2ccccc2nc2n1NC(c1c(Cl)cccc1Cl)N2c1cccc(Cl)c1 (stereo unspecified)	SF-539 CNS	31 µM
S=c1ssc2c3ssc(=S)c3n(Cc3ccccc3)c12	SF-539 CNS	58.9 µM
CC1C(c2ccc(F)cc2)c2cc3c(cc2OC1N1CCCC1)OCO3 (stereo unspecified)	SF-539 CNS	> 100 µM
Cc1ccc(NC(c2ccccc2)c2ccc3cccnc3c2O)cc1 (stereo unspecified)	SF-539 CNS	8.18 µM
O=C1OC(c2ccco2)=N/C1=C\c1ccc(Cl)c(Cl)c1	SF-539 CNS	> 100 µM
NCc1ccc(-c2ccc(-c3ccc(-c4ccc(CN)s4)s3)s2)s1	SF-539 CNS	> 100 µM
